Protocol Notes: yeast display, Sf9 membrane polyspecificity reagent, FACS + sequencing; frameworks hold sequencing errors

[
  {
    "Query Sequence": "QVQLHESGGGLVQAGGSLRLSCAAIGTISYSGPMGWYRQAPGKEREFVAGIGVGSNTNYADSVKGRYTIIRDNAKNTVYLQMNSLKPEDSAVYYCAVGGYAPLGRPYWGQGTQVTVSS",
    "polyreactivity (PSR sort gate)": "low polyreactivity"
  },
  {
    "Query Sequence": "QVQLVESGGGLVQAGGSLRLSCAASGSIYDPYAMGWYRQAPGKERELVAAINGGSGSTFYADSVKGRFTISRDNAKNTVYFQMNSLKPEDTAVYYCAAKIWRYSPSYYPEPRGDYWGQGTQVNVSS",
    "polyreactivity (PSR sort gate)": "low polyreactivity"
  },
  {
    "Query Sequence": "QVQLVESGGGLVQAGGSLRLSCAASGNTFVSNAMGWYRPAPGKERELVAAINSGGSTNYADSVKGRFTISRDNAKNTVYLQMNSLKPEDTAVYYCNKYYDYPQRYWMDYWGQGTQVTVSS",
    "polyreactivity (PSR sort gate)": "low polyreactivity"
  },
  {
    "Query Sequence": "QVQLVETGGGLVQAGGSLRLSCAASGIIIQNNAMGWYRQAPGTERELVAAISSSGGRTYYADSVKGRFTISRDNAKNTVYLQMNSLKPEDTEVYYCNKRWRGSYDYWGQGTQVTVSS",
    "polyreactivity (PSR sort gate)": "high polyreactivity"
  },
  {
    "Query Sequence": "QVQLVESGGGLVQAGGTHRLSCSASGFIFCKYAMGWYRQAPGKERELVAVITRSGSRTYYADSVKGRFTISRDNAKNTVYLQMNSLKPEDTAVYYCATENVYAYDYWGQGTQVTVSS",
    "polyreactivity (PSR sort gate)": "high polyreactivity"
  },
  {
    "Query Sequence": "QVQLVESGGGLVQAGGSLRLSCAASGSTLYYNAMGWYRKAPGKERELVADITSGGSTSYADSVKGRFTISRDNAKNTVYLQMNSLKPEDTAVYYCAAVFYRRFDYWGQGTQVTVSS",
    "polyreactivity (PSR sort gate)": "low polyreactivity"
  },
  {
    "Query Sequence": "QDQLVESGGGLVQAGGSLRLSCAASGSTFYIYAMGWNIQAPGKERELVAAISTTDGTTYYADSVKGRFTISRDNAKKTVYLQMNSLKPEDTAVYYCAAEWFGSVQPAYDYWGQVTQVTVSS",
    "polyreactivity (PSR sort gate)": "high polyreactivity"
  },
  {
    "Query Sequence": "QVQLVESGGGLVQAGGSLRLSCAASGLSCYPYAMGWYRQAPGKEMELVAAITSGDSTYYADSVKGRFTISRDNAKNTVYLQMNSLKPVDTAVYYCAKPDWVEVVTDFEYWGQGTQVTVSS",
    "polyreactivity (PSR sort gate)": "low polyreactivity"
  },
  {
    "Query Sequence": "QVPLVESGGGLVQAGGSLRLSCAASGSTLWVYAMGWSRQAPGKERELVAAITQSTGDTHYADSVKGRFTISRDNAKNTVYLQMNSLKPEDTAVYYCAADSYLSVYDPYGDWGQGTQVTVSS",
    "polyreactivity (PSR sort gate)": "low polyreactivity"
  },
  {
    "Query Sequence": "QVQLVESGGGLVQAGGSLRLSCAASGRIFGVYALGWYRQAPGKARELVAVINGRGSRTYYADSVKGRFRISRDNAKNTVYLQMNSLKPEDTAVYYCAAGYPASEYDYWGQGTQVTVSS",
    "polyreactivity (PSR sort gate)": "high polyreactivity"
  },
  {
    "Query Sequence": "QVHLVESGGGLLQAGGSLRLSCAASGSTFYSYAMGWYRQAPGKERELVAAITYSDGDTYYADSVKGRFTISRDNAKNTVYLQMNSLKPEDTAVYYCAAEYQGQPGTGNLEYWGQGTQVTVSS",
    "polyreactivity (PSR sort gate)": "low polyreactivity"
  },
  {
    "Query Sequence": "QVQLVETGGGLVQAGGSLRLSCAASGGIFVTYAMGWYRQAPGKERELVAAITSGDSTYYADSVKGRFTISRDNAKNTVYLQMNSLKAEDTGVYYCAVGSTDRVSAQGSYFTYDYWGQGTQVTVSS",
    "polyreactivity (PSR sort gate)": "low polyreactivity"
  },
  {
    "Query Sequence": "QVQLVESGGGLVQAGGSLRLSCAASGRIFSHYAMGWYRQAPGKERELVAAINRSGGSTYYADSVKGRFTISRDNAKNTVYLQMNSLKPEDTAVYYCAATSLRRYGYNYWGQGTQVTVSS",
    "polyreactivity (PSR sort gate)": "high polyreactivity"
  },
  {
    "Query Sequence": "QVQLVESGGGLVQAGGSLRLSCAASGSTFGTYTMGWYRPAPGKERELVAAISNRGGTYYADSVKGRFTISRDNAKNTVYLQMNSMKPEDTAVYYCAVARRWGYDYWGQGTQVTVSS",
    "polyreactivity (PSR sort gate)": "high polyreactivity"
  },
  {
    "Query Sequence": "QVQLVESGGGLVQAGGSLRLSCAASGFILWYYTMGWYRQAPGKERELVAVIDWSGDSTYADSVKGRFTISRDNAKNTVYLQMNSLKPEDTAVYYCNKGYPSPQDTYYVPMDYWGQGTQVTVSS",
    "polyreactivity (PSR sort gate)": "low polyreactivity"
  },
  {
    "Query Sequence": "QVQRVESGGGLVQAGGSLRLSCAASGSLFYLYAMGWYRQAPGKERELVARITIRGGSTYYADSVKGRFTISRDNAKNTVYLQMNSLKPEDTAVYYCAARRPYGDYDYWGQGTQVTVSS",
    "polyreactivity (PSR sort gate)": "high polyreactivity"
  },
  {
    "Query Sequence": "QVQLVESGGGLVQAGGSLRLTCAASGRIFNIYAMGWYRQAPGKERELVAAISVSGTRTYYADSVKGRFTISRDNAKNTVYLHMNSLKPEDTAVYYCAADSYGGVWTEHMYYWGQGTQVTVSS",
    "polyreactivity (PSR sort gate)": "low polyreactivity"
  },
  {
    "Query Sequence": "QVQLVESGGGLVQAGGSLRLSCAASGSIFRYYAMGWYRQAPGKERELVAAISRRGSSTYYADSVKGRFTISRDNAKNTVYLQMNSLNPEDTAVYYCAAGDFKQYDYWGQGTQVTVSS",
    "polyreactivity (PSR sort gate)": "high polyreactivity"
  },
  {
    "Query Sequence": "QVQLVESGGGLVQAGGSLRLSCAASGRTFLYYVMGWYRQAPGKERELVAAITNRGGSTYYADSVKGRFTISRDNAKNTVYLQLNSLKPEDTAVYYCNAPYGVYWSSTYYYWGQGTQVTVSS",
    "polyreactivity (PSR sort gate)": "high polyreactivity"
  },
  {
    "Query Sequence": "QVQLVESGGGLVQAGGSLRLSCAASGFTFGYYAMGWYRQAPGKERELVASISSGGSTNYADSVKGRFTISRDNAKNTVYLQMNSLKPEDTAVYYCNKRAYYGRYDYWGQGTQVTVSS",
    "polyreactivity (PSR sort gate)": "high polyreactivity"
  },
  {
    "Query Sequence": "RVQLQESGGGLVQAGGSLRLSCAPSSTISRYFYMGWYRQAPGKEREFVASITYGASTNYADSVKGRFTISRDNAKNTVYLQMNSLKPEDTAVYYCNAKQQPYGGTDYDYWGQGTQVTVSS",
    "polyreactivity (PSR sort gate)": "low polyreactivity"
  }
]

###

Protocol Notes: yeast display, Sf9 membrane polyspecificity reagent, FACS + sequencing; frameworks hold sequencing errors
Readout: polyreactivity (PSR sort gate)

[
  {
    "Query Sequence": "QVQLVESGGGLVQAGGSLRLRCAASGRTFGPYTMGWYRQAPGKEREFVAAINSSGSRTYYADSVKGRFTISRDNAKNTVYLQMNSLKPEDTAVYYCAAEAKWYYSWSYPYEGDYWGQGTQVTVSS",
    "Experimental Result": "low polyreactivity"
  },
  {
    "Query Sequence": "QVHLVESGGGLVQAGGSLRLSCAASGRTFDVYAMGWYRQAPGKERELVATITDSGGNTYYADSVKGRFTISRDNAKNTVYLQMNSLKPEDTAVYYCAADRIYPYYRWSGAHRSDVDYWGQGTQVTVSS",
    "Experimental Result": "low polyreactivity"
  },
  {
    "Query Sequence": "QVQLVESGGGLVQAGGSLRLSCAASGRIFYTNAMGWYRQAPGKERELVAAIDYSDSTTYYADSVKGRFTISRDNAKNTVYLQMNSLKPEDTAVYYCAAESYLYTVTFEYWGQGTQVTVSS",
    "Experimental Result": "high polyreactivity"
  },
  {
    "Query Sequence": "QVQLVESGGGLVQAGGSLRLTCAASARTFFGYAMGWYRQAHGKARELVARIRWSTTYYADSVKGRFTISRDNAKNTVYLQMNSLKPEDTAVYYCNAVYYYVGYRYDYWGQGTQVTVSS",
    "Experimental Result": "high polyreactivity"
  },
  {
    "Query Sequence": "QVQLVESGGRLVQAGGSLRLSCAASGRNFGLYAMGWYRQAPGKEREFVAAIRWIGGGTYYADSVKGRFTISRDNAKNTVYLQMNSLKPEDTAVYYCAARLSVAWVGYDYWGQGTQVTVSS",
    "Experimental Result": "low polyreactivity"
  }
]
